target: UniProt:P00533; experiment: In vitro EGFR enzyme inhibition assay (ELISA); details: EGFR inhibition IC50
Sequence (P00533 25-1210): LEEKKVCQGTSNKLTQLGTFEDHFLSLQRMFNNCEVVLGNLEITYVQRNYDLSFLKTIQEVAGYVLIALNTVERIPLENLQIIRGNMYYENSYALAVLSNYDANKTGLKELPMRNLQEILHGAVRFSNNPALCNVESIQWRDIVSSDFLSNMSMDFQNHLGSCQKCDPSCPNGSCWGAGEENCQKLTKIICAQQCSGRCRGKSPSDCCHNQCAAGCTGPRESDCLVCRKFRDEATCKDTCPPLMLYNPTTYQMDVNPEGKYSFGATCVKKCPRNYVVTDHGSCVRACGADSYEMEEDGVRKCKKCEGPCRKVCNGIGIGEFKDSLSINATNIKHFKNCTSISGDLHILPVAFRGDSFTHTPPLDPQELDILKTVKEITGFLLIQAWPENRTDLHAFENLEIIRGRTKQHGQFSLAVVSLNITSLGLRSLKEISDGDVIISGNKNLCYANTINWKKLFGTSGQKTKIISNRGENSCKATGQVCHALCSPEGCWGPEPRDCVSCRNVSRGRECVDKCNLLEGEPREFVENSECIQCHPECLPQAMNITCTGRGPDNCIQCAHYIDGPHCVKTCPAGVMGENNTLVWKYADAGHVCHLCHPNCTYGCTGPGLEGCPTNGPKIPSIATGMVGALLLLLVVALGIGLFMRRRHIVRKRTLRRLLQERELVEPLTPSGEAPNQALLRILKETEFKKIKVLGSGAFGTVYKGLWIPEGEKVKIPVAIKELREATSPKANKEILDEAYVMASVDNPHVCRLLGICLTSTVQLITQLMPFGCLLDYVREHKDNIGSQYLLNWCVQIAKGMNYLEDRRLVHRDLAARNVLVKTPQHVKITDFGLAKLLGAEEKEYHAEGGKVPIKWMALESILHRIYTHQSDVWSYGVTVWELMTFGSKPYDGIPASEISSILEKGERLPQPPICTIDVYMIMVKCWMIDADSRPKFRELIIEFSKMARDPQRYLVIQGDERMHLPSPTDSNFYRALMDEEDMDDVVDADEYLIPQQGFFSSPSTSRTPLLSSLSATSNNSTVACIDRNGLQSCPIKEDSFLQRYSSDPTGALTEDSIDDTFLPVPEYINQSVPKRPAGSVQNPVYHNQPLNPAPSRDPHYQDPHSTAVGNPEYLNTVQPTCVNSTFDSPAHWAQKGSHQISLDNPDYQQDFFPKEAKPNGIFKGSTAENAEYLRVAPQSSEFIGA
ASSAY_READOUT: pIC50
Give only the number. pIC50 is defined as minus log10 of concentration in molar units.

// field: pIC50; key: O=C(COc1ccc2c(COC(=O)c3ccccc3)cc(=O)oc2c1)c1ccc(Cl)cc1 [Compound 8] ; value = 5.96

// field: pIC50; key: CC(=O)Oc1ccc2c(COC(=O)c3ccccc3)cc(=O)oc2c1 [Compound 13] ; value = 6.44

// field: pIC50; key: O=C(COc1ccc2c(CCl)cc(=O)oc2c1)c1ccc(Cl)cc1 [Compound 6] ; value = 6.81

// field: pIC50; key: O=C(COc1ccc2c(COC(=O)c3ccc(Cl)cc3)cc(=O)oc2c1)c1ccc(Cl)cc1 [Compound 10] ; value = 7.07

// field: pIC50; key: COc1ccccc1C(=O)OCc1cc(=O)oc2cc(O)ccc12 [Compound 4] ; value = 6.36

// field: pIC50; key: O=C(OCc1cc(=O)oc2cc(O)ccc12)c1ccc(Cl)cc1 [Compound 3] ; value = 6.01

// field: pIC50; key: O=C(OCc1cc(=O)oc2cc(O)ccc12)c1ccccc1 [Compound 2] ; value = 6.06

// field: pIC50; key: O=C(COc1ccc2c(COC(=O)c3ccc(Cl)cc3)cc(=O)oc2c1)c1ccccc1 [Compound 9] ; value = 6.88

// field: pIC50; key: O=C(COc1ccc2c(COC(=O)c3ccccc3)cc(=O)oc2c1)c1ccccc1 [Compound 7] ; value = 6.47
